# test: In vivo pharmacokinetics in rats
# Design: species or system Sprague Dawley rats
# condition-parameters: rat, 3.0 mg/kg PO, cassette dosing
metric: F (%)

INSERT INTO assay_data (molecule, metric, units_label, recorded_result) VALUES
  ('Cc1c(-c2nc3cc(CN4CC[C@@H](O)C4)cc(C#N)c3o2)cccc1-c1cccc(NC(=O)c2nc3c(n2C)CCN(CC24CCC(C(=O)O)(CC2)C4)C3)c1Cl [Example 267]', 'F', '%', 12),
  ('Cn1c(C(=O)Nc2cccc(-c3cccc(NC(=O)c4nc5c(n4C)CCN(CC46CCC(C(=O)O)(CC4)C6)C5)c3Cl)c2Cl)nc2c1CCN(CCO)C2 [Example 180]', 'F', '%', 38),
  ('Cc1c(Nc2nc(C(F)F)nc3cc(CN4CC[C@@](C)(O)C4)cnc23)cccc1-c1cccc(NC(=O)c2nc3c(n2C)CCN(CCC24CCC(C(=O)O)(CC2)C4)C3)c1Cl [Example 2]', 'F', '%', 14),
  ('Cc1c(Nc2nc(C(F)F)nc3cc(CN4CC[C@@H](O)C4)cnc23)cccc1-c1cccc(NC(=O)c2nc3c(n2C)CCN(CCC24CCC(C(=O)O)(CC2)C4)C3)c1Cl [Example 1]', 'F', '%', 14),
  ('Cc1c(NC(=O)c2nc3c(n2C)CCN(CCC24CCC(C(=O)O)(CC2)C4)C3)cccc1-c1cccc(Nc2nc(C(F)F)nc3cc(CN4CC[C@@](C)(O)C4)cnc23)c1C [Example 6]', 'F', '%', 30),
  ('Cc1c(-c2nc3cc(CN4CC[C@@H](O)C4)cc(C#N)c3o2)cccc1-c1cccc(NC(=O)c2nc3c(n2C)CCN(CCC2CCC(C(=O)O)CC2)C3)c1Cl (stereo partly drawn) [Example 265]', 'F', '%', 8),
  ('Cc1c(NC(=O)c2nc3c(n2C)CCN(CC24CCC(C(=O)O)(CC2)C4)C3)cccc1-c1cccc(NC(=O)c2nc3c(n2C)CCN(C)C3)c1Cl [Example 102]', 'F', '%', 39),
  ('CN1CCc2c(nc(C(=O)Nc3cccc(-c4cccc(NC(=O)c5nc6c(n5C)CCN(CC57CCC(C(=O)O)(CC5)C7)C6)c4Cl)c3Cl)n2C)C1 [Example 84]', 'F', '%', 28),
  ('Cc1c(NC(=O)c2nc3c(n2C)CCN(CCC24CCC(C(=O)O)(CC2)C4)C3)cccc1-c1cccc(Nc2nc(C(F)F)nc3cc(CN4CC[C@@H](O)C4)cnc23)c1C [Example 5]', 'F', '%', 19);

Values were extracted from patent US11401279B2.
